Numbers sourced from ChEMBL document CHEMBL3217673.

# Tested on: Trypanosoma cruzi
# Protocol: Antiprotozoal activity against Trypanosoma cruzi Tulahuen C2C4
# Assay type: functional, organism-based
Measured quantity: IC50 (nM)
Your answer should be a plain number; it is taken to be in nM.

Example compounds with recorded IC50:
What does the data say about its IC50? Entry: CN1/C(=C/C=C/c2oc3ccc(Cl)cc3[n+]2C)Sc2ccccc21
284

Lookup CN1/C(=C/C=C/c2oc3ccccc3[n+]2C)Oc2ccc(Cl)cc21
7750

Lookup CN1/C(=C/C=C/c2oc3ccccc3[n+]2C)Oc2ccccc21
106

Lookup Cn1/c(=N/C=C/c2sc3ccc(F)cc3[n+]2C)sc2ccccc21
648

Lookup CN1/C(=C/C=C/c2oc3ccc(Cl)cc3[n+]2C)Sc2ccc(Cl)cc21
2860

Others:
What does the data say about its IC50? Entry: CN1/C(=C/C=C/c2sc3ccc(F)cc3[n+]2C)Sc2ccc(F)cc21
2910

Lookup CN1/C(=C/C=C/C=C/c2sc3ccccc3[n+]2C)Sc2ccccc21
60

Lookup Cc1ccc2oc(/C=C/C=C3\Sc4ccc(F)cc4N3C)[n+](C)c2c1
8

Lookup CN1/C(=C/C=C/c2oc3ccccc3[n+]2C)Sc2ccccc21
11

Lookup CCN1/C(=C/C=C/c2sc3ccc(F)cc3[n+]2CC)Sc2ccc(F)cc21
1170

Lookup Cn1/c(=N/C=C/c2sc3ccccc3[n+]2C)sc2ccccc21
16

###

The reader will find reported pIC50 values listed item by item below.
# Test system: Trypanosoma cruzi
# Protocol: Antiprotozoal activity against Trypanosoma cruzi Tulahuen C2C4
# Assay type: functional, organism-based
Keep in mind that pIC50 stands for -log10 of concentration in molar terms.

Example compounds with recorded pIC50:
What does the data say about its pIC50? Entry: Cc1ccc2oc(/C=C/C=C3\Oc4ccc(Cl)cc4N3C)[n+](C)c2c1
5.86

Lookup Cn1/c(=N/C=C/c2sc3ccc(Cl)cc3[n+]2C)sc2ccccc21
6.29

Lookup CN1/C(=C/C=C/c2sc3ccc(Cl)cc3[n+]2C)Sc2ccc(Cl)cc21
5.15

Lookup Cc1ccc2c(c1)N(C)/C(=C/C=C/c1oc3ccccc3[n+]1C)O2
7.72

# input for lookup
What does the data say about its pIC50? Entry: CN1/C(=C/C=C/c2oc3ccccc3[n+]2C)Sc2ccc(Cl)cc21
6.45

###

# Test system: Trypanosoma cruzi
# Protocol: Antiprotozoal activity against Trypanosoma cruzi Tulahuen C2C4
# Format: functional, organism-based
Measured quantity: IC50 (nM)
Your answer should be a plain number; it is taken to be in nM.

Example compounds with recorded IC50:
What does the data say about its IC50? Entry: CN1/C(=C/C=C/c2oc3ccc(Cl)cc3[n+]2C)Oc2ccc(Cl)cc21
47800

Lookup Cc1ccc2oc(/C=C/C=C3\Sc4ccc(Cl)cc4N3C)[n+](C)c2c1
109

Lookup CN1/C(=C/C=C/c2sc3ccccc3[n+]2C)Sc2ccccc21
5

Others:
What does the data say about its IC50? Entry: CN1/C(=C/C=C/C=C/c2sc3ccc(F)cc3[n+]2C)Sc2ccc(F)cc21
1960

Lookup CCN1/C(=C/C=C/c2oc3ccc(C)cc3[n+]2C)Sc2ccc(F)cc21
27

Lookup CCN1/C(=C/C=C/c2oc3ccccc3[n+]2C)Sc2ccc(F)cc21
262

Lookup CN1/C(=C/C=C/c2oc3ccccc3[n+]2C)Sc2ccc(F)cc21
186

Lookup Cn1/c(=N\N/C=C/c2sc3ccc(F)cc3[n+]2C)sc2ccccc21
11800
